Data provenance is patent US12378231B2.

target of assay: human recombinant FAAH (Homo sapiens (Human))
Sequence (O00519 whole entry): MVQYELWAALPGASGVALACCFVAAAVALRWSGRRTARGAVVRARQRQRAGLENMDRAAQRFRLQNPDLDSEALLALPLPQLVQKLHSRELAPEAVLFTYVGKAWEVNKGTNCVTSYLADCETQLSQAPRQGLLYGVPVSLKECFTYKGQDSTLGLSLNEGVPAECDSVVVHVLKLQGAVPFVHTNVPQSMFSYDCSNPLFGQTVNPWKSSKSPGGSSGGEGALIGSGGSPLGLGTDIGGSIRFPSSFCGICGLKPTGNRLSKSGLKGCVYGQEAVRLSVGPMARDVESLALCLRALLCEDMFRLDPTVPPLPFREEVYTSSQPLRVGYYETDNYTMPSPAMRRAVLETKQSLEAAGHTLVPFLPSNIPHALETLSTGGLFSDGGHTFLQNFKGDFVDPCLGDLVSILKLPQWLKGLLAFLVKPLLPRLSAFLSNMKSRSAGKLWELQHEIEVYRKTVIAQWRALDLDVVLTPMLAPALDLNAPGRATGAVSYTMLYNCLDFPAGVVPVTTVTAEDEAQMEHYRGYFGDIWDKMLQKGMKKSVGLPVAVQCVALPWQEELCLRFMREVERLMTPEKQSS
experiment summary: In vitro inhibition of human recombinant FAAH activity (Cayman FAAH inhibitor screening kit, AMC arachidonoyl amide hydrolysis)
Assay type: biochemical
parameter: IC50

{"query smiles": "CCN(C(=O)N1CCN(C(c2ccc3c(c2)COCO3)c2ccc3c(c2)COCO3)CC1)C(C)C", "parameter": "IC50", "result": "> 50 µM"}
{"query smiles": "CCC(CC)OC(=O)N1CCN(C(c2ccc3c(c2)COCO3)c2ccc3c(c2)COCO3)CC1", "parameter": "IC50", "result": "> 50 µM"}
{"query smiles": "O=C(On1nnc2cccnc21)N1CCN(C(c2ccc3c(c2)COCO3)c2ccc3c(c2)COCO3)CC1", "parameter": "IC50", "result": "> 10 µM"}

----------
Reported IC50 is given for each of the following molecules.
target of assay: human recombinant MAGL (Homo sapiens (Human))
experiment summary: In vitro inhibition of human recombinant MAGL activity (Cayman inhibitor screening kit, 4-nitrophenylacetate hydrolysis)
Type: biochemical
details: human recombinant MAGL; read-out: Inhibition on MAGL activity (IC50)

{"query smiles": "O=C(Oc1ccc2c(c1)CCC2)N1CCN(C(c2ccc3c(c2)COCO3)c2ccc3c(c2)COCO3)CC1", "target of assay": "human recombinant MAGL (Homo sapiens (Human))", "IC50": "> 100 nM"}
{"query smiles": "O=C(OC(C(F)(F)F)C(F)(F)F)N1CCN(C(c2ccc3c(c2)COCO3)c2ccc3c(c2)COCO3)CC1", "target of assay": "human recombinant MAGL (Homo sapiens (Human))", "IC50": "1 to 20 nM"}
{"query smiles": "N#Cc1ncn(C(=O)N2CCN(C(c3ccc4c(c3)OCCO4)c3ccc4c(c3)OCCO4)CC2)n1", "target of assay": "human recombinant MAGL (Homo sapiens (Human))", "IC50": "1 to 10 nM"}

----------
target of assay: human recombinant FAAH (Homo sapiens (Human))
experiment summary: In vitro inhibition of human recombinant FAAH activity (Cayman FAAH inhibitor screening kit, AMC arachidonoyl amide hydrolysis)
pIC50: −log10 of the molar value.

{"compound": "N#Cc1ncn(C(=O)N2CCN(C(c3ccc4c(c3)CCO4)c3ccc4c(c3)CCO4)CC2)n1 [Example 107]", "pIC50": "5.00 to 6.00"}
{"compound": "O=C(N1CCN(C(c2ccc3c(c2)COCO3)c2ccc3c(c2)COCO3)CC1)n1nnc2cc(F)ccc21 [Example 40]", "pIC50": "4.70 to 6.00"}
{"compound": "N#Cc1ncn(C(=O)N2CCCC(=C(c3ccc4c(c3)COCO4)c3ccc4c(c3)COCO4)CC2)n1 [Example 128]", "pIC50": "5.00 to 6.00"}
{"compound": "N#Cc1ccc2c(c1)nnn2C(=O)N1CC2(CC(OC(c3ccc4c(c3)COCO4)c3ccc4c(c3)COCO4)C2)C1 [Example 60]", "pIC50": "> 5.00"}
{"compound": "CCN(CC)C(=O)N1CCN(C(c2ccc3c(c2)COCO3)c2ccc3c(c2)COCO3)CC1 [Example 18]", "pIC50": "< 4.30"}
{"compound": "O=C(Oc1ccc([N+](=O)[O-])cc1F)N1CCN(C(c2ccc3c(c2)COCO3)c2ccc3c(c2)COCO3)CC1 [Example 19]", "pIC50": "< 4.30"}

----------
target of assay: human recombinant MAGL (Homo sapiens (Human), UniProt Q99685)
Sequence (Q99685 whole entry): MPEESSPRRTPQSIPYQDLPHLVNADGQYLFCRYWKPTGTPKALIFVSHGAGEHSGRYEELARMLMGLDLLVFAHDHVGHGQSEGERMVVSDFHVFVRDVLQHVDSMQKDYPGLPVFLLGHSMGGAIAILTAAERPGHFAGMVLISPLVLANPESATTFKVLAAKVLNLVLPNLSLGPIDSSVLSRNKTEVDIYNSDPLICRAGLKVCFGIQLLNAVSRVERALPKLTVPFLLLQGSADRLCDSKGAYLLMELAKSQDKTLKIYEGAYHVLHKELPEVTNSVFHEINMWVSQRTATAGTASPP
experiment summary: In vitro inhibition of human recombinant MAGL activity (Cayman inhibitor screening kit, 4-nitrophenylacetate hydrolysis)
Type: biochemical
details: human recombinant MAGL; read-out: Inhibition on MAGL activity (IC50)
pIC50: −log10 of the molar value.
Catalogue of pIC50 readings, one per entry.
parameter: pIC50

{"compound": "O=C(N1CCN(C(c2ccc3c(c2)COCO3)c2ccc3c(c2)COCO3)CC1)n1cncn1 [Example 10]", "target of assay": "human recombinant MAGL (Homo sapiens (Human), UniProt Q99685)", "result": "7.00 to 8.00"}
{"compound": "O=C(Oc1c(F)c(F)c(F)c(F)c1F)C1CCN(C(c2ccc3c(c2)COCO3)c2ccc3c(c2)COCO3)CC1 [Example 54]", "target of assay": "human recombinant MAGL (Homo sapiens (Human), UniProt Q99685)", "result": "< 7.00"}
{"compound": "O=C(N1CCN(C(c2ccc3c(c2)CCO3)c2ccc3c(c2)CCO3)CC1)n1nnc2ccccc21 [Example 108]", "target of assay": "human recombinant MAGL (Homo sapiens (Human), UniProt Q99685)", "result": "8.00 to 9.00"}
{"compound": "O=C(Nc1cccnc1)N1CCN(C(c2ccc3c(c2)COCO3)c2ccc3c(c2)COCO3)CC1 [Example 43]", "target of assay": "human recombinant MAGL (Homo sapiens (Human), UniProt Q99685)", "result": "< 7.00"}
{"compound": "O=C(N1CCN(C(c2ccc3c(c2)COCO3)c2ccc3c(c2)COCO3)CC1)n1nnc2c(Cl)cc(C(F)(F)F)cc21 [Example 42]", "target of assay": "human recombinant MAGL (Homo sapiens (Human), UniProt Q99685)", "result": "8.00 to 9.00"}
{"compound": "N#Cc1ncn(C(=O)N2CCN(C(c3ccc4c(c3)CCO4)c3ccc4c(c3)CCO4)CC2)n1 [Example 107]", "target of assay": "human recombinant MAGL (Homo sapiens (Human), UniProt Q99685)", "result": "8.00 to 9.00"}
{"compound": "O=C(Oc1ccc([N+](=O)[O-])cc1F)N1CCN(C(c2ccc3c(c2)COCO3)c2ccc3c(c2)COCO3)CC1 [Example 19]", "target of assay": "human recombinant MAGL (Homo sapiens (Human), UniProt Q99685)", "result": "< 7.00"}
{"compound": "N#Cc1ccc2c(c1)nnn2C(=O)N1CCN(C(c2ccc3c(c2)OC(F)(F)O3)c2ccc3c(c2)OC(F)(F)O3)CC1 [Example 99]", "target of assay": "human recombinant MAGL (Homo sapiens (Human), UniProt Q99685)", "result": "8.00 to 9.00"}
{"compound": "N#Cc1ccc2c(c1)nnn2C(=O)N1CCC(N(c2cccnc2)c2ccc3c(c2)OCO3)CC1 [Example 75]", "target of assay": "human recombinant MAGL (Homo sapiens (Human), UniProt Q99685)", "result": "8.00 to 9.00"}
{"compound": "N#Cc1ncn(C(=O)N2CCN(C(c3ccc(-n4cccn4)cc3)c3ccc(-n4cccn4)cc3)CC2)n1 [Example 116]", "target of assay": "human recombinant MAGL (Homo sapiens (Human), UniProt Q99685)", "result": "8.00 to 9.00"}
{"compound": "O=C(Nc1cccnn1)N1CCC(=Cc2cccc(Oc3ccc(C(F)(F)F)cn3)c2)CC1 [PF-04457845, reference compound]", "target of assay": "human recombinant MAGL (Homo sapiens (Human), UniProt Q99685)", "result": "< 5.00"}
{"compound": "N#Cc1ccc2nnn(C(=O)N3CCC(N(c4ccc(F)cc4)c4ccc5c(c4)OCO5)CC3)c2c1 [Example 63]", "target of assay": "human recombinant MAGL (Homo sapiens (Human), UniProt Q99685)", "result": "8.00 to 9.00"}
{"compound": "O=C(N1CCN(C(c2ccc3c(c2)COCO3)c2ccc3c(c2)COCO3)CC1)n1nnc2ccc(C(F)(F)F)cc21 [Example 44]", "target of assay": "human recombinant MAGL (Homo sapiens (Human), UniProt Q99685)", "result": "8.00 to 9.00"}
{"compound": "COc1ccc(C(c2ccc3c(c2)COCO3)N2CCN(C(=O)n3cnc(C#N)n3)CC2)cn1 (centres unmarked) [Example 118]", "target of assay": "human recombinant MAGL (Homo sapiens (Human), UniProt Q99685)", "result": "8.00 to 9.00"}
